assay.summary: in vitro
conditions.used: human, % of cell viability compared to control, 2. measurement, HepG2, 0.1 µM
reported.property: viability at 0.1 µM
Just so you know, I need the unit written after the number.

Problem: Output measured viability at 0.1 µM for this item: COc1ccc2cc3[n+](cc2c1OCc1ccc(Cl)cc1)CCc1cc2c(cc1-3)OCO2 [16i, 9-O-(4-chlorbenzyl)berberine chloride]
Result: 91.6%

Problem: Return viability at 0.1 µM for the following molecule: COc1ccc2cc3[n+](cc2c1OCc1ccccc1Br)CCc1cc2c(cc1-3)OCO2 [16e, 9-O-(2-brombenzyl)berberine chloride]
Result: 95.5%

Problem: Give the reported value of viability at 0.1 µM for this record: COc1ccc2cc3[n+](cc2c1OCc1ccc(C)cc1)CCc1cc2c(cc1-3)OCO2 [16d, 9-O-(4-methylbenzyl)berberine chloride]
Result: 93.3%

###

Please go through the items and note down their viability at 10 µM.
assay.summary: in vitro
conditions.used: human, % of cell viability compared to control, 1. measurement, HepG2, 10 µM
Reply numerically in %, unit not repeated.

Problem: Answer with the recorded viability at 10 µM for the compound listed here: COc1ccc2cc3[n+](cc2c1OCc1cccc(C)c1)CCc1cc2c(cc1-3)OCO2 [16c, 9-O-(3-methylbenzyl)berberine chloride]
Result: 74

Problem: Please look at this compound and report its viability at 10 µM: COc1ccc2cc3[n+](cc2c1OCc1cccc(Cl)c1)CCc1cc2c(cc1-3)OCO2 [16h, 9-O-(3-chlorbenzyl)berberine chloride]
Result: 51.7

Problem: Supply reported viability at 10 µM belonging to this compound: COc1ccc2cc3[n+](cc2c1OCc1ccc(Cl)c(Cl)c1)CCc1cc2c(cc1-3)OCO2 [16k]
Result: 50.4

Problem: Supply viability at 10 µM value. Item: COc1ccc2cc3[n+](cc2c1OCc1ccc(Cl)cc1)CCc1cc2c(cc1-3)OCO2 [16i, 9-O-(4-chlorbenzyl)berberine chloride]
Result: 55.3

Problem: Supply reported viability at 10 µM belonging to this compound: COc1ccc2cc3[n+](cc2c1OCc1ccccc1Br)CCc1cc2c(cc1-3)OCO2 [16e, 9-O-(2-brombenzyl)berberine chloride]
Result: 48.6

Problem: Write down viability at 10 µM measured for item COc1ccc2cc3[n+](cc2c1OCc1ccc(C)cc1)CCc1cc2c(cc1-3)OCO2 [16d, 9-O-(4-methylbenzyl)berberine chloride]
Result: 55.6

###

assay.summary: in vitro
conditions.used: human, % of cell viability compared to control, 2. measurement, HepG2, 75 µM
reported.property: viability at 75 µM (%)
Hi! Could you send only the number? It should be in %, unit omitted.

Problem: Specify reported viability at 75 µM for the compound shown: COc1ccc2cc3[n+](cc2c1OCc1ccccc1C)CCc1cc2c(cc1-3)OCO2 [16b, 9-O-(2-methylbenzyl)berberine chloride]
Result: 41.1

Problem: Supply recorded viability at 75 µM for COc1ccc2cc3[n+](cc2c1OCc1ccc(Br)cc1)CCc1cc2c(cc1-3)OCO2 [16g, 9-O-(4-brombenzyl)berberine chloride] here.
Result: 40.7

Problem: For the compound COc1ccc2cc3[n+](cc2c1OCc1ccc(C)cc1)CCc1cc2c(cc1-3)OCO2 [16d, 9-O-(4-methylbenzyl)berberine chloride] , report viability at 75 µM.
Result: 34

Problem: Identify viability at 75 µM associated with the compound COc1ccc2cc3[n+](cc2c1OCc1ccc(Cl)c(Cl)c1)CCc1cc2c(cc1-3)OCO2 [16k]
Result: 28.2

Problem: Give me measured viability at 75 µM, please, for this compound: COc1ccc2cc3[n+](cc2c1OCc1cccc(Br)c1)CCc1cc2c(cc1-3)OCO2 [16f, 9-O-(3-brombenzyl)berberine chloride]
Result: 2.26

Problem: Annotate the compound COc1ccc2cc3[n+](cc2c1OCc1cccc(C)c1)CCc1cc2c(cc1-3)OCO2 [16c, 9-O-(3-methylbenzyl)berberine chloride] with its measured viability at 75 µM.
Result: 45.7

Problem: Provide one value: measured viability at 75 µM of COc1ccc2cc3[n+](cc2c1OCc1ccccc1)CCc1cc2c(cc1-3)OCO2 [16a, 9-O-benzylberberine chloride]
Result: 31.1

Problem: For the compound COc1ccc2cc3[n+](cc2c1OCc1cccc(Cl)c1)CCc1cc2c(cc1-3)OCO2 [16h, 9-O-(3-chlorbenzyl)berberine chloride] , report viability at 75 µM.
Result: 1.14
